- System Under Test: human M2 receptor (Homo sapiens)
- Assay Name: SPA GTP (GTPgS) binding curve shift assay, M2
- Format: biochemical
- Condition Details: M2; Emraclidine concentration 41.2 nM; read-out: Emax
Assay Endpoint: Emax (%)

CCCCCOc1nsnc1C1=CCCCN1C [KTX-517]: 57.9
CCCCCCOc1nsnc1C1=CCCN(C)C1 [xanomeline, reference compound]: 48.2
CCCCCCCOc1nsnc1C1=CCCCN1C [KTX-593]: 52.6
CC1OC2(CS1)CN1CCC2CC1 (stereo not shown) [cevimeline, Cevimeline, reference compound]: 57

###

- System Under Test: UniProt:P08172
- Sequence (P08172 1-466): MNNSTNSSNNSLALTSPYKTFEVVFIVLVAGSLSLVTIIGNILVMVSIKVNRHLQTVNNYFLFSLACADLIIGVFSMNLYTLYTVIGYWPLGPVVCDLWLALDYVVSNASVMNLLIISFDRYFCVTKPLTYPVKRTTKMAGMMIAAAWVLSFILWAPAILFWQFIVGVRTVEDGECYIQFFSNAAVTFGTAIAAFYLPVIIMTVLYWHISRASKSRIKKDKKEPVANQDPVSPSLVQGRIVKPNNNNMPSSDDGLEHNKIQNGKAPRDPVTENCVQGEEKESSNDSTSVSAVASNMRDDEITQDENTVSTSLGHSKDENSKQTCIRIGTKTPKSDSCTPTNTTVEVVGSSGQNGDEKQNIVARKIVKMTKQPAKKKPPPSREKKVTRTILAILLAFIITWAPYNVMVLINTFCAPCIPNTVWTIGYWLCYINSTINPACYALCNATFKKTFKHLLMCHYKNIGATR
- Assay Name: SPA GTP (GTPgS) binding curve shift assay, M2
- Format: biochemical
- Condition Details: M2; Emraclidine concentration 0 nM
pEC50: −log10 of the molar value.
Assay Endpoint: pEC50

CCCCCCCOc1nsnc1C1=CCCCN1C: 7.45

I = CC1OC2(CS1)CN1CCC2CC1 (stereo not drawn) [cevimeline, Cevimeline, reference compound]
II = CCCCCOc1nsnc1C1=CCCCN1C
Please let me know which one, I or II , has a lower measured pEC50 value. Write down the label attached to your selection.
I
